The reported measurements were obtained from the supplement of paper PMC5908809.

system: NK-92 (IL-2 2.5 ng/mL); assay: percent inhibition of viability; higher = more inhibition; conditions: 72 h; 1000 nM
Label true (1) when percent inhibition of viability is strictly below 40%; otherwise label false (0).

Answered cases to consult:
# COMPOUND, QUALITATIVE_LABEL
records = [
    ("N#Cc1ccc(C(c2ccc(C#N)cc2)n2cncn2)cc1 [Letrozole] (max concentration tested 10000 nM)", "true (1)"),
    ("CC(C)(C)c1cc(NC(=O)Nc2ccc(-c3cn4c(n3)sc3cc(OCCN5CCOCC5)ccc34)cc2)no1 [Quizartinib] (max concentration tested 1000 nM)", "true (1)"),
    ("COc1cc2nccc(Oc3ccc(NC(=O)Nc4cc(C)on4)c(Cl)c3)c2cc1OC [Tivozanib] (max concentration tested 10000 nM)", "false (0)"),
]

Lookup: Is percent inhibition of viability of Nc1nc(Cl)nc2c1ncn2[C@H]1C[C@H](O)[C@@H](CO)O1 [Cladribine] (max concentration tested 1000 nM) strictly below 40%?
Found: false (0)

Lookup: Again, but for C[C@]1(O)C[C@@H](c2nc(-c3ccc4ccc(-c5ccccc5)nc4c3)c3c(N)nccn32)C1 [Linsitinib] (max concentration tested 10000 nM)
Found: true (1)

Lookup: Moving on to CCCCc1nc2cc(/C=C/C(=O)NO)ccc2n1CCN(CC)CC [Pracinostat] (max concentration tested 10000 nM)
Found: false (0)

* * *

test system: normal primary NK cells, pool 2 (3 donors) (IL-2 2.5 ng/mL); test: percent inhibition of viability; higher = more inhibition; conditions: 72 h; 10 nM
Reported percent inhibition of viability values are given for each entry in this list.

# example entries with known answers
# COMPOUND, MEAS_VALUE
data = [
    ("COCC[n+]1c2c(n(Cc3cnccn3)c1C)C(=O)c1ccccc1C2=O [YM155] (max concentration tested 10000 nM)", "4.96%"),
    ("COc1ccc(C2=N[C@@H](c3ccc(Cl)cc3)[C@@H](c3ccc(Cl)cc3)N2C(=O)N2CCNC(=O)C2)c(OC(C)C)c1 [Nutlin-3] (max concentration tested 10000 nM)", "9.9%"),
    ("C[C@@]1(C(=O)Nc2ccc(F)nc2)CCCN1c1nc(Nc2cc(C3CC3)n[nH]2)c2cccn2n1 (max concentration tested 10000 nM)", "-4.83%"),
    ("CC(=O)O[C@H]1C(=O)[C@@]2(C)[C@H]([C@H](OC(=O)c3ccccc3)[C@]3(O)C[C@H](OC(=O)[C@H](O)[C@@H](NC(=O)c4ccccc4)c4ccccc4)C(C)=C1C3(C)C)[C@]1(OC(C)=O)CO[C@@H]1C[C@@H]2O [Paclitaxel] (max concentration tested 1000 nM)", "-9.26%"),
]

The record that follows has no percent inhibition of viability shown yet.
Lookup: What measured percent inhibition of viability goes with Cc1ccc(F)c(NC(=O)Nc2ccc(-c3cccc4[nH]nc(N)c34)cc2)c1 [Linifanib] (max concentration tested 1000 nM) ?
Found: -3.37%

* * *

test system: IMC-1 (IL-2 20 ng/mL); test: percent inhibition of viability; higher = more inhibition; conditions: 72 h; 1 nM
TEST_READOUT: percent inhibition of viability (%)
Unit % implied. Number only.

# COMPOUND, percent inhibition of viability, %
measured = [
    ("CCn1cc(-c2ccnc3[nH]c(-c4cccc(CN(C)C)c4)cc23)c(-c2ccc(NC(=O)N(C)C)cc2)n1 (max concentration tested 1000 nM)", 2.14),
    ("CC[C@@H]1C(=O)N(C)c2cnc(Nc3ccc(C(=O)NC4CCN(C)CC4)cc3OC)nc2N1C1CCCC1 [BI 2536] (max concentration tested 1000 nM)", -6.74),
    ("CN1CCC(COc2cnc(-c3cccc(Cn4nc(-c5cccc(C#N)c5)ccc4=O)c3)nc2)CC1 (max concentration tested 1000 nM)", -2.19),
    ("C[C@]12CC[C@@H]3c4ccc(OC(=O)N(CCCl)CCCl)cc4CC[C@H]3[C@@H]1CC[C@@H]2O [Estramustine] (max concentration tested 10000 nM)", -0.43),
    ("O=C(Nc1cccnc1)N1CCC(Cc2cccc(Oc3ccc(C(F)(F)F)cn3)c2)CC1 [PF-3845] (max concentration tested 10000 nM)", 0.9),
]

Lookup: percent inhibition of viability of CNC(=O)c1cc(Oc2ccc(NC(=O)Nc3ccc(Cl)c(C(F)(F)F)c3)c(F)c2)ccn1 [Regorafenib] (max concentration tested 10000 nM) on IMC-1 (IL-2 20 ng/mL)?
Found: -4.09

Lookup: And the next one, CC(C)C[C@H](NC(=O)[C@H](Cc1ccccc1)NC(=O)c1cnccn1)B(O)O [Bortezomib] (max concentration tested 1000 nM) ?
Found: -3.94

Lookup: Moving on to C[C@@]1(C(=O)Nc2ccc(F)nc2)CCCN1c1nc(Nc2cc(C3CC3)n[nH]2)c2cccn2n1 (max concentration tested 10000 nM)
Found: 1.89

Lookup: Would you kindly repeat that for FC(F)c1nc2ccccc2n1-c1nc(N2CCOCC2)nc(N2CCOCC2)n1 [ZSTK474] (max concentration tested 10000 nM) ?
Found: 0.84

* * *

system: KAI3 (IL-2 2.5 ng/mL); experiment: drug sensitivity score (DSS) (DSS units); higher = more sensitive; extreme values may be limits of the assay; conditions: 72 h
# drug sensitivity score annotations
Keep it simple and answer with nothing but the number.

Worked cases, drug sensitivity score given:
# MOLECULE, TARGET_UNDER_TEST, drug sensitivity score
records = [
    ("C[C@@H](Oc1cc(-n2cnc3ccc(CN4CCN(C)CC4)cc32)sc1C(N)=O)c1ccccc1C(F)(F)F (max concentration tested 10000 nM)", "KAI3 (IL-2 2.5 ng/mL)", 19.3),
    ("COc1cc2nccc(Oc3ccc(NC(=O)Nc4cc(C)on4)c(Cl)c3)c2cc1OC [Tivozanib] (max concentration tested 10000 nM)", "KAI3 (IL-2 2.5 ng/mL)", 2.57),
]

Lookup: Please provide the recorded drug sensitivity score for CC(C)c1cc(-c2n[nH]c(=O)n2-c2ccc3c(ccn3C)c2)c(O)cc1O [Ganetespib] (max concentration tested 1000 nM) , tested on KAI3 (IL-2 2.5 ng/mL).
Found: 23.3

Lookup: Another molecule: Cc1ccc(NC(=O)c2ccc(CN3CCN(C)CC3)cc2)cc1Nc1nc(-c2cccnc2)cs1 [Masitinib] (max concentration tested 10000 nM)
Found: 5.72

Lookup: Same for COc1ccc(CCc2nc3cc(-c4c(C)noc4C)ccc3n2C[C@H](C)N2CCOCC2)cc1Cl [SGC-CBP30] (max concentration tested 25000 nM)
Found: 2.09

Lookup: Check CN(C)CCOc1ccc(/C(=C(/CCCl)c2ccccc2)c2ccccc2)cc1 [Toremifene] (max concentration tested 10000 nM) too.
Found: 4.76

Lookup: Same again, this time with CNC(=O)CN1CCC(Oc2cc3c(Nc4cccc(Cl)c4F)ncnc3cc2OC)CC1 [Sapitinib] (max concentration tested 1000 nM)
Found: 0

Lookup: Subsequent entry: O=C(O)CCCCC(CCSCc1ccccc1)SCc1ccccc1 (stereo unspecified) [CPI-613] (max concentration tested 10000 nM)
Found: 0.36

Lookup: How about Cc1nc(NC(=O)N2CCC[C@H]2C(N)=O)sc1-c1ccnc(C(C)(C)C(F)(F)F)c1 [Alpelisib] (max concentration tested 2500 nM) ?
Found: 2.35

Lookup: What would you report for CC[C@@H]1C(=O)N(C)c2cnc(Nc3ccc(C(=O)NC4CCN(C)CC4)cc3OC)nc2N1C1CCCC1 [BI 2536] (max concentration tested 1000 nM) ?
Found: 14.1

Lookup: Another molecule: CC(C)(C)c1cnc(CSc2cnc(NC(=O)C3CCNCC3)s2)o1 [SNS-032] (max concentration tested 10000 nM)
Found: 25.1

* * *

tested on: KHYG-1 (IL-2 2.5 ng/mL); assay: percent inhibition of viability; higher = more inhibition; details: 72 h; 0.25 nM
Quick reference: percent inhibition of viability of the listed items.
Numbers only; they are read as %.

Example molecules with recorded percent inhibition of viability:
# MOLECULE, percent inhibition of viability / %
measured = [
    ("O=C(Nc1ccc(OC(F)(F)F)cc1)c1sccc1NCc1ccnc2ccccc12 [OSI-930] (max concentration tested 2500 nM)", 0.6),
    ("CCOc1ccn(-c2ccc(F)cc2)c(=O)c1C(=O)Nc1ccc(Oc2ccnc(N)c2Cl)c(F)c1 (max concentration tested 2500 nM)", 2.8),
    ("Cn1cc(-c2cnn3c(N)c(Br)c([C@@H]4CCCNC4)nc23)cn1 [MK-8776] (max concentration tested 2500 nM)", -1.01),
]

Lookup: Sample Cc1nc(NC(=O)N2CCC[C@H]2C(N)=O)sc1-c1ccnc(C(C)(C)C(F)(F)F)c1 [Alpelisib] (max concentration tested 2500 nM) — what was its percent inhibition of viability?
Found: -0.82

* * *

test system: YT (IL-2 2.5 ng/mL); test: percent inhibition of viability; higher = more inhibition; details: 72 h; 1 nM
TEST_READOUT: percent inhibition of viability (%)
Give your result in % as a bare value.

Below are worked cases with known answers.
# COMPOUND, TARGET_UNDER_TEST, MEAS_VALUE
measured = [
    ("CN1CCC(CNc2ccc3ncc(-c4cccc(OC(F)(F)F)c4)n3n2)CC1 [SGI-1776] (max concentration tested 10000 nM)", "YT (IL-2 2.5 ng/mL)", 2.03),
    ("CC(C)c1cc(-c2n[nH]c(=O)n2-c2ccc3c(ccn3C)c2)c(O)cc1O [Ganetespib] (max concentration tested 1000 nM)", "YT (IL-2 2.5 ng/mL)", -4.31),
    ("C[C@]1(c2nc3c(C(N)=O)cccc3[nH]2)CCCN1 [Veliparib] (max concentration tested 10000 nM)", "YT (IL-2 2.5 ng/mL)", 1.3),
    ("Cc1cnc(Nc2ccc(OCCN3CCCC3)cc2)nc1Nc1cccc(S(=O)(=O)NC(C)(C)C)c1 (max concentration tested 10000 nM)", "YT (IL-2 2.5 ng/mL)", -4.96),
    ("N#CC[C@H](C1CCCC1)n1cc(-c2ncnc3[nH]ccc23)cn1 [Ruxolitinib] (max concentration tested 10000 nM)", "YT (IL-2 2.5 ng/mL)", 9.67),
]

Lookup: Recorded percent inhibition of viability of CCCS(=O)(=O)Nc1ccc(F)c(C(=O)c2c[nH]c3ncc(-c4ccc(Cl)cc4)cc23)c1F [Vemurafenib] (max concentration tested 10000 nM) , please.
Found: 1.23
